# ASSAY_PROCEDURE: Pharmacokinetic determination in SD rats (plasma, LC/MS/MS)
# Format: in vivo
# STUDY_CONDITIONS: male, plasma; SD rat, iv, 1 mg/kg
REPORTED_PROPERTY: AUC(0-t) (ng·h/mL)

COMPOUND | REPORTED_PROPERTY | RECORDED_NUMBER
COC(=O)c1nn(-c2cc(Cl)c(Oc3ccc(=O)n(Cc4ccccc4)c3)c(Cl)c2)c(=O)[nH]c1=O | AUC(0-t) | 17400
CC(C)c1cc(Oc2c(Cl)cc(-n3nc(C#N)c(=O)[nH]c3=O)cc2Cl)n[nH]c1=O [MGL3196, reference compound] | AUC(0-t) | 8840
O=c1cnn(-c2cc(Cl)c(Oc3ccc(=O)n(Cc4ccccc4)c3)c(Cl)c2)c(=O)[nH]1 | AUC(0-t) | 16900

----------
# TGT: TRβ (Homo sapiens)
# Construct: Then 5 μL of 4×TRα-LBD or TRP-LBD
# Sequence (P10828 217-461 limits assumed): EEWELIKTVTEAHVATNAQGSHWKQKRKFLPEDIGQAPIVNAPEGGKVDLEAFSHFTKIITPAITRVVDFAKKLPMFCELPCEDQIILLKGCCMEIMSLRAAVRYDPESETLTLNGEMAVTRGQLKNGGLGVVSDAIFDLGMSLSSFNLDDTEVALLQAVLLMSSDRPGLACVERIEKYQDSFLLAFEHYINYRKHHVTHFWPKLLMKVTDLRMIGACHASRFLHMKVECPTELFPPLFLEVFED
# ASSAY_PROCEDURE: In vitro binding activity, LanthaScreen TR-FRET Thyroid Receptor beta Coactivator Assay
# STUDY_CONDITIONS: TRβ-LBD
Response field label takes yes when EC50 is strictly below 200 nM and no in all other cases.

SMI | CLASS_ASSIGNMENT
COC(=O)c1nn(-c2cc(Cl)c(Oc3ccc(=O)n(Cc4ccccc4)c3)c(Cl)c2)c(=O)[nH]c1=O | no
O=c1[nH]c(=O)n(-c2cc(Cl)c(Oc3ccc(=O)n(Cc4ccccc4)c3)c(Cl)c2)nc1CO | no
Cc1cc(Oc2c(Cl)cc(-n3nc(C#N)c(=O)[nH]c3=O)cc2Cl)cn(Cc2ccccc2)c1=O | no
COCCn1cc(Oc2c(Cl)cc(-n3nc(C#N)c(=O)[nH]c3=O)cc2Cl)ccc1=O | yes
N#Cc1nn(-c2cc(Cl)c(Oc3ccc(=O)n(Cc4cccc(C(F)(F)F)c4)c3)c(Cl)c2)c(=O)[nH]c1=O | no
N#Cc1nn(-c2cc(Cl)c(Oc3ccc(=O)n(Cc4ccccc4)c3)c(Cl)c2)c(=O)[nH]c1=O | yes
N#Cc1nn(-c2cc(Cl)c(Oc3cc(Cl)c(=O)n(Cc4ccccc4)c3)c(Cl)c2)c(=O)[nH]c1=O | no

----------
# TGT: TRα (Homo sapiens, UniProt P10827)
# Construct: Then 5 μL of 4×TRα-LBD or TRP-LBD
# Sequence (P10827 163-410 isoform P10827-2 limits assumed, other chains not shown): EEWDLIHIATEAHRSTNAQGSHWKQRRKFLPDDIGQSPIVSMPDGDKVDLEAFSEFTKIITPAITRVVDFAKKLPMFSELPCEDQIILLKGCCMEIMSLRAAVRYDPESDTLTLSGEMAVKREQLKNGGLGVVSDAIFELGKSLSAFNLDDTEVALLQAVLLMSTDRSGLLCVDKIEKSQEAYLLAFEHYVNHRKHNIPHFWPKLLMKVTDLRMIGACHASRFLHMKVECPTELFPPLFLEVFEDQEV
# ASSAY_PROCEDURE: In vitro binding activity, LanthaScreen TR-FRET Thyroid Receptor alfa Coactivator Assay
# STUDY_CONDITIONS: TRα-LBD
# Experimental: 2. Detection of TRα or TRβ Binding Activity In Vitro of the Compound of the Present Invention […] This method was tested using LanthaScreen TR-FRET Thyroid Receptor beta/alfa Coactivator Assay kit. […] After 1 h, the fluorescence value (RFU) was read at 520 nm and 495 nm using PHERAstar FSX microplate reader from BMG LABTECH. […]
Entries and their EC50

COMPOUND | RESULT_OPERATOR | EC50 (nM)
CCOC(=O)C(C)n1cc(Oc2c(Cl)cc(-n3nc(C#N)c(=O)[nH]c3=O)cc2Cl)ccc1=O (stereo not shown) | = | 570
O=c1cnn(-c2cc(Cl)c(Oc3ccc(=O)n(Cc4ccc(F)cc4)c3)c(Cl)c2)c(=O)[nH]1 | = | 92
N#Cc1nn(-c2cc(Cl)c(Oc3ccc(=O)n(CCO)c3)c(Cl)c2)c(=O)[nH]c1=O | = | 22700
N#Cc1nn(-c2cc(Cl)c(Oc3ccc(=O)n(Cc4ccccc4)n3)c(Cl)c2)c(=O)[nH]c1=O | > | 100000
